Listing: MIC of selected compounds
System: Candida albicans
Test: Antifungal activity against Candida albicans ATCC 10231 after 24 hr by broth microdilution method
Type: functional
Settings: ATCC 10231, 24 h, read-out: MIC

ITEM SMILES | MIC
Cc1ncc([N+](=O)[O-])n1CC/N=C/c1ccc([N+](=O)[O-])cc1 | 450 µM
Cc1ncc([N+](=O)[O-])n1CC/N=C/c1cc(Cl)ccc1O | 440 µM
Cc1ncc([N+](=O)[O-])n1CC/N=C/c1cccs1 | 2070 µM
Cc1ccc(/C=N/CCn2c([N+](=O)[O-])cnc2C)cc1 | 1000 µM
Cc1ncc([N+](=O)[O-])n1CC/N=C/c1ccccc1Cl | 170 µM
Cc1ncc([N+](=O)[O-])n1CC/N=C/c1ccc(F)cc1 | 1990 µM
COc1ccc(/C=N/CCn2c([N+](=O)[O-])cnc2C)cc1 | 340 µM
Cc1ncc([N+](=O)[O-])n1CC/N=C/c1ccccc1O | 360 µM

###

System: Staphylococcus aureus
Test: Antibacterial activity against Staphylococcus aureus ATCC 6538P after 24 hr by broth microdilution method
Format: functional
Conditions: read-out: MIC
Please use 1 for MIC under 5 mM and 0 for everything else, ties included.

ITEM SMILES | CLASS LABEL
Cc1ncc([N+](=O)[O-])n1CCO | 1
Cc1ncc([N+](=O)[O-])n1CC/N=C/c1cc(Cl)ccc1O | 1
Cc1ncc([N+](=O)[O-])n1CC/N=C/c1ccncc1 | 0
Cc1ncc([N+](=O)[O-])n1CC/N=C/c1ccccc1Cl | 1
Cc1ccc(/C=N/CCn2c([N+](=O)[O-])cnc2C)cc1 | 0
Cc1ncc([N+](=O)[O-])n1CC/N=C/c1ccccc1O | 1
Cc1ncc([N+](=O)[O-])n1CC/N=C/c1ccco1 | 0
COc1ccc(/C=N/CCn2c([N+](=O)[O-])cnc2C)cc1 | 1
Cc1ncc([N+](=O)[O-])n1CC/N=C/c1cccs1 | 0
